- assay-name: clinical
- protocol-conditions: human, in vivo, 30 mg, Terminal exponential phase half-lives (T1/2 values), range
readout-label: half-life

Recorded half-life for `CN1[C@@H](CC(=O)c2ccccc2)CCC[C@H]1C[C@H](O)c1ccccc1` , please?
1 to 5 h

Recorded half-life for CN1[C@H](CC(=O)c2ccccc2)CCC[C@H]1C[C@H](O)c1ccccc1 (single isomer, unassigned; epimer 2) [Epimer] , please?
1 to 5 h

###

Exercise: for every item that follows, state its recorded MRT last.
- assay-name: in vivo
- protocol-conditions: male, rat, in vivo, po, 20 mg/kg
The reply should be a number in h, with the unit left off.

Recorded MRT last for `CN1[C@@H](CC(=O)c2ccccc2)CCC[C@H]1C[C@H](O)c1ccccc1` , please?
1.88

Recorded MRT last for CN1[C@H](CC(=O)c2ccccc2)CCC[C@H]1C[C@H](O)c1ccccc1 (single isomer, unassigned; epimer 2) [Epimer] , please?
1.73

Data credit: patent US20090118331A1
